- System: BXPC-3
- method_notes: Antiproliferative activity against human BxPC3 cells after 48 hrs by MTS assay
- Type: functional, cell-based
- cond: BXPC-3, 48 h
Structures can show the parent of a compound that is named as a salt.
Recorded pIC50 values for a group of molecules are listed next.
Notebook: values listed as pIC50 are -log10 of the concentration (mol/L).

Here is how some molecules turned out for pIC50.
[[record]]
molecule = "CC(=O)O[C@@H]1[C@@H](O)[C@@H](OC(C)=O)[C@H](Oc2c(-c3ccc(O)cc3)oc3cc(O)cc(O)c3c2=O)O[C@H]1C"
val = 3.95

[[record]]
molecule = "COc1cc(/C=C/C(O)=C/C(=O)/C=C/c2ccc(O)cc2)ccc1O"
val = 4.62

[[record]]
molecule = "COc1cc(/C=C/C(=O)CC(=O)/C=C/c2ccc(O)c(OC)c2)ccc1O"
val = 4.94


# ---- query molecule ----
Entry CC[C@]1(O)C[C@@H]2CN(CCc3c([nH]c4ccccc34)[C@@](C(=O)OC)(c3cc4c(cc3OC)N(C)[C@H]3[C@@](O)(C(=O)OC)[C@H](OC(C)=O)[C@]5(CC)C=CCN6CC[C@]43[C@@H]65)C2)C1 [VINBLASTINE SULFATE] : reported pIC50 = ?
5.95
